- tested_system: human alpha 7-wt nAChR (Homo sapiens, UniProt P36544)
- Construct: expressed in transfected cells
- Sequence (P36544 23-502): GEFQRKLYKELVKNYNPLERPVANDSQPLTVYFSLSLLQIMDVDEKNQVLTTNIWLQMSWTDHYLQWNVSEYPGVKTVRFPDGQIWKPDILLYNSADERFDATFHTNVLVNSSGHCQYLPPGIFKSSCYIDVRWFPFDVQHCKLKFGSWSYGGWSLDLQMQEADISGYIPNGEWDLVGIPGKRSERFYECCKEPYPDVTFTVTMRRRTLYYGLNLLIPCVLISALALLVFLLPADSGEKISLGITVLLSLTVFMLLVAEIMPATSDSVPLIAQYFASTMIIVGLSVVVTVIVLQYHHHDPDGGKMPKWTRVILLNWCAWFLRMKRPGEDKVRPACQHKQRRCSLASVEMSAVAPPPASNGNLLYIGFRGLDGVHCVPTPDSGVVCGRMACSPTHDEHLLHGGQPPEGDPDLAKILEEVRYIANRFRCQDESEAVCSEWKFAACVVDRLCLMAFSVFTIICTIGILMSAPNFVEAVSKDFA
- run_description: Ca2+ flux imaging (FDSS) (Protocol B)
- Type: cell-based
- assay_conditions: potentiation of 100 μM choline; compounds 0.01 μM to 30 μM; read-out: a7-PAM-G_[33]_pEC50 pEC50 (converted)
- Protocol: Ca^2+ Flux Imaging (FDSS) (Protocol B) […] PAM activity was detected in real time by applying the compounds to be tested to the loaded cells along with an alpha 7 nicotinic receptor agonist during constant monitoring of cellular fluorescence in a FDSS. […] A control response to choline was calculated on each plate from the difference in peak in fluorescence in wells receiving either choline or assay buffer alone. […]
readout_name: EC50 (nM)

Use the examples below as a reference point.
* Cc1ccc(-c2sc(N3C[C@@H](C)O[C@@H](C)C3)nc2CNC(=O)c2cc(C)on2)cn1 | 1860
* Cc1cc(-c2sc(N3C[C@@H](C)O[C@@H](C)C3)nc2CNC(=O)C(C)C)cc(C)n1 | 100
* COc1ccc(C(=O)NCc2nc(N3C[C@@H](C)O[C@@H](C)C3)sc2-c2cc(C)nc(C)c2)cc1 | 513

a. Cc1cc(-c2sc(N3C[C@@H](C)O[C@@H](C)C3)nc2CNC(=O)c2ccc(F)cc2C)cc(C)n1
b. Cc1cc(-c2sc(N3C[C@@H](C)O[C@@H](C)C3)nc2CNC(=O)c2ccccc2Cl)ccn1
c. Cc1cc(-c2sc(N3CC(C)OC(C(F)(F)F)C3)nc2CNC(=O)CC2CC2)cc(C)n1 (single isomer, unassigned) [Compound 206]
d. Cc1ccc(-c2sc(N3C[C@@H](C)O[C@@H](C)C3)nc2CNC(=O)c2ccccc2Cl)cn1
e. Cc1cc(-c2sc(N3C[C@@H](C)O[C@@H](C)C3)nc2CNC(=O)c2ccc(Cl)cc2)cc(C)n1
Asked: Order the records, beginning with the lowest EC50 and ending with the highest. Answer with the labels in sequence, matching the requested order.
Given back: a, c, e, b, d
